These data points were gathered from patent US20260347364A1.

Recorded IC50 by entry
- Assayed Target: KRAS G12D (Homo sapiens, UniProt P01116, G12D)
- Construct: aa1-188 KRAS WT, HRAS WT, NRAS WT, or KRAS containing the G12D
- Sequence (P01116 1-188 isoform P01116-2 G12D): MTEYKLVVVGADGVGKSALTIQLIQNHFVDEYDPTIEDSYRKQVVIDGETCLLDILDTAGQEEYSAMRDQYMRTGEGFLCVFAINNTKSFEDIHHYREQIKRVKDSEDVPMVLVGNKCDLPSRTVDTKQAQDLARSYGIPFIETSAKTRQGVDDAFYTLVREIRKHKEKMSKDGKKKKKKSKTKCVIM
- Method Notes: HTRF nucleotide exchange assay, KRAS G12D
- Condition Description: HTRF nucleotide exchange assay (NEA), class symbols

Worked set:
CCc1c(F)ccc2cc(O)cc(-c3cc4nc(OCC56CCCN5CCC6)nc(N5CCCC(C)(O)CC5)c4c4cn(C)nc34)c12 (stereo not drawn)    100 to 10000 nM
CCc1c(F)ccc2cc(O)cc(-c3c(F)c4nc(OC[C@@]56CCCN5C[C@H](F)C6)nc(N5CC6CCC(C5)N6)c4c4cn(C)nc34)c12    ≤ 10 nM

Read the next record carefully.
Query: IC50 for CCc1c(F)ccc2cc(O)cc(-c3cc4nc(OC[C@@H]5CCN5)nc(N5CCCn6nc(C(=O)N(C)C)cc6C5)c4c4cn(C)nc34)c12 ?
Response: ≤ 10 nM

###

pIC50: −log10 of the molar value.
Here's what we have: pIC50 numbers for UniProtKB P01116.

Cc1cc2[nH]ncc2c(-c2cc3nc(OC[C@@]45CCCN4C[C@H](F)C5)nc(N4CCCn5nc(C(=O)N(C)C)cc5C4)c3c3cn(C)nc23)c1C1CC1 [Example 74]    7.00 to 8.00
CCc1c(F)ccc2cc(O)cc(-c3c(F)c4nc(OCC5COCCN5C)nc(N5CCOCC(C)(O)C5)c4c4cn(C)nc34)c12 (stereo not drawn) [Example 232]    7.00 to 8.00
CCc1c(F)ccc2cc(O)cc(-c3c(F)c4nc(OCC5COCCN5)nc(N5CCOCC(C)(O)C5)c4c4cn(C)nc34)c12 (stereo not drawn) [Example 233]    7.00 to 8.00
CCc1c(F)ccc2cc(O)cc(-c3cc4nc(OC[C@@]56CCCN5C[C@H](F)C6)nc(N5CCCCCC5)c4c4cn(C)nc34)c12 [Example 9]    5.00 to 7.00
CCc1c(F)ccc2cc(O)cc(-c3c(C)c4nc(OCC5(CN6CCCC6)CC5)nc(N5CCOCC(C)(O)C5)c4c4cn(C)nc34)c12 (stereo not drawn) [Example 146]    ≥ 8.00

Read the next record carefully.
Query: Please state recorded pIC50 (tested on UniProtKB P01116) of CCc1c(F)ccc2cc(O)cc(-c3c(F)c4nc(OCC5(C#N)CCOC5)nc(N5CCCNC(=O)C5)c4c4cn(C)nc34)c12 (stereo not drawn) [Example 244]
Response: 5.00 to 7.00

###

- Assayed Target: KRAS G12D (Homo sapiens, UniProt P01116, G12D)
- Construct: aa1-188 KRAS WT, HRAS WT, NRAS WT, or KRAS containing the G12D
- Method Notes: HTRF nucleotide exchange assay, KRAS G12D
- Condition Description: HTRF nucleotide exchange assay (NEA), class symbols
Recorded IC50 by entry

Worked set:
CCc1c(F)ccc2cc(O)cc(-c3c(F)c4nc(OCC5(CN6CCC(C#N)C6)CC5)nc(N5CCOCC(C)(O)C5)c4c4cn(C)nc34)c12 (stereo not drawn)    ≤ 10 nM
CCc1c(F)ccc2cc(O)cc(-c3c(F)c4nc(OCC56COC(COC)(C5)C6)nc(N5CC6CCC(C5)N6)c4c4cn(C)nc34)c12    ≤ 10 nM
CCc1c(F)ccc2cc(O)cc(-c3c(C)c4nc(OC[C@@H]5C[C@@H](F)CN5)nc(N5CCOCC(C)(O)C5)c4c4cn(C)nc34)c12 (stereo partly drawn)    ≤ 10 nM

Query: IC50 for C#Cc1c(F)ccc2cc(O)cc(-c3cc4nc(OC[C@@]56CCCN5C[C@H](F)C6)nc(N5CCCn6nc(C(=O)N(C)C)cc6C5)c4c4cn(C)nc34)c12 ?
Response: ≤ 10 nM

Query: Please give the result for C#Cc1c(F)ccc2cc(O)cc(-c3cc4nc(OC[C@@]56CCCN5C[C@H](F)C6)nc(N5CCCC(C)(O)C5)c4c4cn(C)nc34)c12 (stereo partly drawn) too.
Response: 10 to 100 nM

Query: Please give the result for C#Cc1c(F)ccc2cc(O)cc(-c3cc4nc(OC[C@@]56CCCN5C[C@H](F)C6)nc(N5CC6C(=O)NC(=O)C6C5)c4c4cn(C)nc34)c12 (stereo partly drawn) too.
Response: 100 to 10000 nM

Query: Please give the result for CCc1c(F)ccc2cc(O)cc(-c3c(F)c4nc(OCC5(C)CC(OC)CN5)nc(N5CCOCC(C)(O)C5)c4c4cn(C)nc34)c12 (stereo not drawn) too.
Response: ≤ 10 nM

Query: Please give the result for Cn1cc2c(n1)c(-c1cccc3sc(N)c(C#N)c13)cc1nc(OC[C@@]34CCCN3C[C@H](F)C4)nc(N3CC4CCC(C3)N4)c12 too.
Response: ≤ 10 nM

Query: Please give the result for CCc1c(F)ccc2cc(O)cc(-c3cc4nc(OC[C@@]56CCCN5C[C@H](F)C6)nc(N5CC6CCC(C5)C6C#N)c4c4cn(C)nc34)c12 (stereo partly drawn) too.
Response: 10 to 100 nM

Query: Please give the result for C#CC1(O)CCCN(c2nc(OC[C@@]34CCCN3C[C@H](F)C4)nc3cc(-c4cc(O)cc5ccc(F)c(CC)c45)c4nn(C)cc4c23)C1 (stereo partly drawn) too.
Response: 10 to 100 nM

Query: Please give the result for CCc1c(F)ccc2cc(O)cc(-c3c(F)c4nc(OCC5(CF)COC5)nc(N5CC6CCC(C5)N6)c4c4cn(C)nc34)c12 too.
Response: ≤ 10 nM

Query: Please give the result for CCc1c(F)ccc2cc(O)cc(-c3cc4nc(OC[C@@]56CCCN5C[C@H](F)C6)nc(N5CCC(C)(OC)CC5)c4c4cn(C)nc34)c12 too.
Response: 100 to 10000 nM
